# target-desc: Thrombin, from Human Plasma (Homo sapiens)
# assay-info: Enzymatic assay, thrombin
Where a SMILES comes first, the peptide text is derived from it.
recorded-metric: Thrombin at 100 μM % (%)
Reply numerically in %, unit not repeated.

Consider the reported Thrombin at 100 μM % for these compounds:
CC[C@H](C)[C@@H]1NC(=O)[C@@H]2CCCN2C(=O)[C@@H]2CCCN2C(=O)[C@H](CC(=O)O)NC(=O)[C@H](CO)NC(=O)[C@H](CCCCN)NC(=O)[C@H]([C@@H](C)O)NC(=O)[C@@H]2CSSC[C@H](NC1=O)C(=O)N[C@@H](CC(=O)O)C(=O)N1CCC[C@@H]1C(=O)N1CCC[C@H]1C(=O)N[C@@H](Cc1ccccc1)C(=O)N2 [Ex. 2] (HELM PEPTIDE1{F.C.T.K.S.D.P.P.I.C.D.[dP].P}$PEPTIDE1,PEPTIDE1,2:R3-10:R3|PEPTIDE1,PEPTIDE1,1:R1-13:R2$$$V2.0)	9.2
CC[C@H](C)[C@@H]1NC(=O)[C@@H]2CCCN2C(=O)[C@@H]2CCCN2C(=O)[C@H](CC(=O)O)NC(=O)[C@H](CO)NC(=O)[C@H](CCCCN)NC(=O)[C@H]([C@@H](C)O)NC(=O)[C@@H]2CSSC[C@H](NC1=O)C(=O)N[C@@H](Cc1ccc(O)cc1)C(=O)N1CCC[C@@H]1C(=O)N1CCC[C@H]1C(=O)N[C@@H](C1CCCCC1)C(=O)N2 [Ex. 40] (HELM PEPTIDE1{[O=C([C@@H](N[*:1])C1CCCCC1)[*:2]].C.T.K.S.D.P.P.I.C.Y.[dP].P}$PEPTIDE1,PEPTIDE1,2:R3-10:R3|PEPTIDE1,PEPTIDE1,1:R1-13:R2$$$V2.0)	1
CCCC[C@@H]1NC(=O)[C@@H]2CCCN2C(=O)[C@H]2CCCN2C(=O)[C@H](Cc2ccccc2)NC(=O)[C@@H]2CSSC[C@H](NC1=O)C(=O)N[C@@H]([C@@H](C)O)C(=O)N[C@@H](C)C(=O)N[C@@H](CO)C(=O)N[C@@H]([C@@H](C)CC)C(=O)N1CCC[C@H]1C(=O)N1CCC[C@H]1C(=O)N[C@@H](CCC(N)=O)C(=O)N2 [Ex. 90] (HELM PEPTIDE1{[Nle].C.T.A.S.I.P.P.Q.C.F.[dP].P}$PEPTIDE1,PEPTIDE1,2:R3-10:R3|PEPTIDE1,PEPTIDE1,1:R1-13:R2$$$V2.0)	0

Here is the next item to consider.
Challenge: For Thrombin, from Human Plasma (Homo sapiens), provide Thrombin at 100 μM % of CCCC[C@@H]1NC(=O)[C@H](CCC(N)=O)NC(=O)[C@H]2CCCN2C(=O)[C@H](Cc2ccc(O)cc2)NC(=O)[C@@H]2CSSC[C@H](NC1=O)C(=O)N[C@@H]([C@@H](C)O)C(=O)N[C@@H](C)C(=O)N[C@@H](CO)C(=O)N[C@@H]([C@@H](C)CC)C(=O)N1CCC[C@H]1C(=O)N1CCC[C@H]1C(=O)N[C@@H](CCC(N)=O)C(=O)N2 [Ex. 123] (HELM PEPTIDE1{[Nle].C.T.A.S.I.P.P.Q.C.Y.[dP].Q}$PEPTIDE1,PEPTIDE1,2:R3-10:R3|PEPTIDE1,PEPTIDE1,1:R1-13:R2$$$V2.0) please.
Response given: 2.7

* * *

# target-desc: Chymotrypsin, from human pancreas (Homo sapiens)
# Sequence (P17538 19-263): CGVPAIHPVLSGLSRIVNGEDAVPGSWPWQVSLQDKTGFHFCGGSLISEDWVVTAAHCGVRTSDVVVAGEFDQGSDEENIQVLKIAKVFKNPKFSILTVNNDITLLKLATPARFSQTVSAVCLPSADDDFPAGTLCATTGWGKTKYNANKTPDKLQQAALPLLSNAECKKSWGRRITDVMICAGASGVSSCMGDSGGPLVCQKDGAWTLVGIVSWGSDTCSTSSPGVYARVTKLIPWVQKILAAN
# assay-info: Enzymatic assay, chymotrypsin
Where a SMILES comes first, the peptide text is derived from it.
recorded-metric: pIC50
Worth noting: pIC50 values are minus log10 of concentrations stated in mol/L.

CCCC[C@@H]1NC(=O)[C@@H]2CCCN2C(=O)[C@H]2CCCN2C(=O)[C@H](Cc2ccc(O)cc2)NC(=O)[C@@H]2CSSC[C@H](NC1=O)C(=O)N[C@@H]([C@@H](C)O)C(=O)N[C@@H](C)C(=O)N[C@@H](CO)C(=O)N[C@@H](CC1CCCCC1)C(=O)N1CCC[C@H]1C(=O)N1CCC[C@H]1C(=O)N[C@@H](CCC(N)=O)C(=O)N2 [Ex. 82] (HELM PEPTIDE1{[Nle].C.T.A.S.[Cha].P.P.Q.C.Y.[dP].P}$PEPTIDE1,PEPTIDE1,2:R3-10:R3|PEPTIDE1,PEPTIDE1,1:R1-13:R2$$$V2.0)	7.14
CCCC[C@@H]1NC(=O)[C@@H]2CCCN2C(=O)[C@H]2CCCN2C(=O)[C@H](Cc2ccc(O)cc2)NC(=O)[C@H]([C@@H](C)O)NC(=O)[C@H](CCC(N)=O)NC(=O)[C@@H]2CCCN2C(=O)[C@@H]2CCCN2C(=O)[C@H]([C@@H](C)CC)NC(=O)[C@H](CO)NC(=O)[C@H](C)NC(=O)[C@H]([C@@H](C)O)NC(=O)[C@H](CCC(N)=O)NC1=O [Ex. 109] (HELM PEPTIDE1{[Nle].Q.T.A.S.I.P.P.Q.T.Y.[dP].P}$PEPTIDE1,PEPTIDE1,1:R1-13:R2$$$V2.0)	7.86
CCCC[C@@H]1NC(=O)[C@@H]2CCCN2C(=O)[C@H]2CCCN2C(=O)[C@H](CCC(N)=O)NC(=O)[C@@H]2CSSC[C@H](NC1=O)C(=O)N[C@@H]([C@@H](C)O)C(=O)N[C@@H](C)C(=O)N[C@@H](CO)C(=O)N[C@@H]([C@@H](C)CC)C(=O)N1CCC[C@H]1C(=O)N1CCC[C@H]1C(=O)N[C@@H](CCC(N)=O)C(=O)N2 [Ex. 91] (HELM PEPTIDE1{[Nle].C.T.A.S.I.P.P.Q.C.Q.[dP].P}$PEPTIDE1,PEPTIDE1,2:R3-10:R3|PEPTIDE1,PEPTIDE1,1:R1-13:R2$$$V2.0)	4.32
CCCC[C@@H]1NC(=O)[C@@H]2CCCN2C(=O)[C@@H](CC(=O)O)NC(=O)[C@H](Cc2ccc(O)cc2)NC(=O)[C@@H]2CSSC[C@H](NC1=O)C(=O)N[C@@H]([C@@H](C)O)C(=O)N[C@@H](C)C(=O)N[C@@H](CO)C(=O)N[C@@H]([C@@H](C)CC)C(=O)N1CCC[C@H]1C(=O)N1CCC[C@H]1C(=O)N[C@@H](CCC(N)=O)C(=O)N2 [Ex. 115] (HELM PEPTIDE1{[Nle].C.T.A.S.I.P.P.Q.C.Y.[dD].P}$PEPTIDE1,PEPTIDE1,2:R3-10:R3|PEPTIDE1,PEPTIDE1,1:R1-13:R2$$$V2.0)	4.56

Here is the next item to consider.
Challenge: What measured pIC50 goes with CCCC[C@@H]1NC(=O)[C@@H]2CCCN2C(=O)[C@H]2CCCN2C(=O)[C@H](Cc2ccccc2Cl)NC(=O)[C@@H]2CSSC[C@H](NC1=O)C(=O)N[C@@H]([C@@H](C)O)C(=O)N[C@@H](C)C(=O)N[C@@H](CO)C(=O)N[C@@H]([C@@H](C)CC)C(=O)N1CCC[C@H]1C(=O)N1CCC[C@H]1C(=O)N[C@@H](CCC(N)=O)C(=O)N2 [Ex. 96] (HELM PEPTIDE1{[Nle].C.T.A.S.I.P.P.Q.C.[O=C([C@H](Cc1ccccc1Cl)N[*:1])[*:2]].[dP].P}$PEPTIDE1,PEPTIDE1,2:R3-10:R3|PEPTIDE1,PEPTIDE1,1:R1-13:R2$$$V2.0) ?
Response given: 4.81

* * *

Each entry below lists one item and its recorded Hemolysis at 100 μM % value.
# System: human red blood cells (hRBC)
# assay-info: Hemolysis
Where a SMILES comes first, the peptide text is derived from it.
Reply numerically in %, unit not repeated.

Consider the reported Hemolysis at 100 μM % for these molecules:
CC[C@H](C)[C@@H]1NC(=O)[C@@H]2CCCN2C(=O)[C@@H]2CCCN2C(=O)[C@H](CC(=O)O)NC(=O)[C@H](CO)NC(=O)[C@H](CCCCN)NC(=O)[C@H]([C@@H](C)O)NC(=O)[C@@H]2CSSC[C@H](NC1=O)C(=O)N[C@@H](CO)C(=O)N1CCC[C@@H]1C(=O)N[C@@H](CCC(=O)O)C(=O)N[C@@H](Cc1ccccc1)C(=O)N2 [Ex. 64] (HELM PEPTIDE1{F.C.T.K.S.D.P.P.I.C.S.[dP].E}$PEPTIDE1,PEPTIDE1,2:R3-10:R3|PEPTIDE1,PEPTIDE1,1:R1-13:R2$$$V2.0)	0
CCCC[C@@H]1NC(=O)[C@@H]2CCCN2C(=O)[C@@H]2CCCN2C(=O)[C@H](CC(=O)O)NC(=O)[C@H](CO)NC(=O)[C@H](CCCCN)NC(=O)[C@H]([C@@H](C)O)NC(=O)[C@@H]2CSSC[C@H](NC1=O)C(=O)N[C@@H](CO)C(=O)N1CCC[C@@H]1C(=O)N1CCC[C@H]1C(=O)N[C@@H](Cc1ccccc1)C(=O)N2 [Ex. 15] (HELM PEPTIDE1{F.C.T.K.S.D.P.P.[Nle].C.S.[dP].P}$PEPTIDE1,PEPTIDE1,2:R3-10:R3|PEPTIDE1,PEPTIDE1,1:R1-13:R2$$$V2.0)	0

Here is the next item to consider.
Challenge: What measured Hemolysis at 100 μM % goes with CC[C@H](C)[C@@H]1NC(=O)[C@H](C)NC(=O)[C@@H]2CCCN2C(=O)[C@H](CC(=O)O)NC(=O)[C@H](CO)NC(=O)[C@H](CCCCN)NC(=O)[C@H]([C@@H](C)O)NC(=O)[C@@H]2CSSC[C@H](NC1=O)C(=O)N[C@@H](CCCNC(=N)N)C(=O)N1CCC[C@@H]1C(=O)N1CCC[C@H]1C(=O)N[C@@H]([C@@H](C)CC)C(=O)N2 [Ex. 14] (HELM PEPTIDE1{I.C.T.K.S.D.P.A.I.C.R.[dP].P}$PEPTIDE1,PEPTIDE1,2:R3-10:R3|PEPTIDE1,PEPTIDE1,1:R1-13:R2$$$V2.0) ?
Response given: 0
